target: HIV-1 Env of isolate 92TH021 (HIV-1)
assay_comment: cell-based or functional assay
observed_property: IC50 (µg/mL), pseudovirus neutralization

Given item PGT-127 (antibody, V domains shown) VH: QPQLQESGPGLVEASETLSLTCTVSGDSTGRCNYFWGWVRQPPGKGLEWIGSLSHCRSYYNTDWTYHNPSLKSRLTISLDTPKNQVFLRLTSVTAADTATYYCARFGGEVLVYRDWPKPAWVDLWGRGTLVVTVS VL: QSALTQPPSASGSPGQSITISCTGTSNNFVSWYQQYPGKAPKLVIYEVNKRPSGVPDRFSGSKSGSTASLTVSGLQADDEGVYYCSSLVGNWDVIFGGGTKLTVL , the value recorded as its IC50 (µg/mL), pseudovirus neutralization is > 50 µg/mL

Given item PGT-126 (antibody, V domains shown) VH: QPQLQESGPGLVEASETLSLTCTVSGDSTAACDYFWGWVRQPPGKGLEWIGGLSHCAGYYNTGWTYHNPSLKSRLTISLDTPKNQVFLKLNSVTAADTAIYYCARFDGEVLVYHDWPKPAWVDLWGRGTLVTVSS VL: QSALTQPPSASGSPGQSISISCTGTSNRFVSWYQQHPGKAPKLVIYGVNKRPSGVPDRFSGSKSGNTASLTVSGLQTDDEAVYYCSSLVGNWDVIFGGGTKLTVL , the value recorded as its IC50 (µg/mL), pseudovirus neutralization is 0.197 µg/mL

Others:
Given item PGT-123 (antibody, V domains shown) VH: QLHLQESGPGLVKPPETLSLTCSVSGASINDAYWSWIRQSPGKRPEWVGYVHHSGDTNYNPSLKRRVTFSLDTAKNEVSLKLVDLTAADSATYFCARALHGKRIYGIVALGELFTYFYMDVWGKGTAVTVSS VL: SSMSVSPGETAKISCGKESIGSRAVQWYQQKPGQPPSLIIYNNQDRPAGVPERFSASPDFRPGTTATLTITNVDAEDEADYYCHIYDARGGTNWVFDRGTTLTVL , the value recorded as its IC50 (µg/mL), pseudovirus neutralization is > 50 µg/mL
